Data provenance is patent US7388111B2.

EXPERIMENTAL SYSTEM: HIV-1 RT (Human immunodeficiency virus type 1 group M subtype B, UniProt P03366)
ASSAY INFO: HIV Reverse Transcriptase Assay: Inhibitor IC50 Determination
SETTINGS: purified recombinant enzyme, poly(rA)/oligo(dT)16 template-primer, 37° C. 30 min
MEASURE NAME: pIC50
The scale used: pIC50 is minus the common logarithm of the concentration in molar units.

# annotated cases, reported pIC50 shown
Cc1cc(C#N)ccc1Oc1ccc(CC(=O)Nc2ccc(S(N)(=O)=O)cc2Cl)c(C)c1C :: 6.80
COc1cc(CC(=O)Nc2ccc(S(N)(=O)=O)cc2Cl)ccc1Oc1ccc(C#N)cc1C :: 6.38

Need pIC50, item `Cc1cc(S(N)(=O)=O)ccc1NC(=O)Cc1ccc(Oc2cc(C#N)cc(C(F)F)c2)c(Br)c1` 6.93

Need pIC50, item `Cc1c(CC(=O)Nc2ccc(S(N)(=O)=O)cc2Br)ccc(Oc2cc(Cl)cc(C#N)c2)c1C` 7.07

Need pIC50, item `NS(=O)(=O)c1ccc(NC(=O)Cc2ccc(Oc3c(Cl)cccc3Cl)c(Cl)c2)c(Cl)c1` 7.20

Need pIC50, item `Cc1c(CC(=O)Nc2ccc(S(N)(=O)=O)cc2Cl)ccc(Oc2cc(Cl)cc(C#N)c2)c1C` 6.95

Need pIC50, item `COc1cc(CC(=O)Nc2ccc(S(N)(=O)=O)cc2Br)ccc1Oc1ccc(C#N)cc1C` 6.55

Need pIC50, item `Cc1cc(OCCCS(N)(=O)=O)ccc1NC(=O)Cc1ccc(Oc2cc(Cl)ccc2Br)c(Cl)c1` 6.83

Need pIC50, item `N#Cc1cc(C#N)cc(Oc2ccc(CC(=O)Nc3ccccc3Br)cc2Cl)c1` 5.62

Need pIC50, item `N#Cc1cc(Cl)cc(Oc2ccc(CC(=O)Nc3ccc(CS(N)(=O)=O)cc3)cc2Br)c1` 5.63

Need pIC50, item `Cc1cc(S(N)(=O)=O)ccc1NC(=O)Cc1ccc(Oc2cc(Cl)cc(C#N)c2)c(Br)c1` 6.47

Need pIC50, item `N#Cc1cc(Cl)cc(Oc2ccc(CC(=O)Nc3ccc(S(N)(=O)=O)cc3Br)cc2Br)c1` 7.87

Need pIC50, item `Cc1cc(C#N)ccc1Oc1ccc(CC(=O)Nc2ccc(S(N)(=O)=O)cc2Cl)cc1Cl` 7.15

Need pIC50, item `N#Cc1cc(Cl)cc(Oc2ccc(CC(=O)Nc3ccc(S(N)(=O)=O)cc3Cl)cc2Cl)c1` 7.03
